- Species on record: Homo sapiens
- test_details: Selectivity ratio of Ki for JAK2 (unknown origin) to Ki for JAK1 (unknown origin)
readout: Ratio Ki
Give bare numbers.

Return reported Ratio Ki values for all items listed beneath this line.
1. N#CCCN1CCC(n2nnc3cnc4[nH]ccc4c32)CC1
2. CC1(n2nnc3cnc4[nH]ccc4c32)CCN(S(C)(=O)=O)CC1
3. CC(C)CC(=O)N[C@H]1CC[C@H](n2nnc3cnc4[nH]ccc4c32)CC1
4. CS(=O)(=O)N1CCC(n2nnc3cnc4[nH]ccc4c32)CC1
5. CC(C)(C)OC(=O)N[C@H]1CC[C@H](n2nnc3cnc4[nH]ccc4c32)CC1

A)
1: 1.8; 2: 6.7; 3: 3.6; 4: 1.9; 5: 3.3

Return reported Ratio Ki values for all items listed beneath this line.
1. CN1CCC[C@H]1C(=O)N1CCC(n2nnc3cnc4[nH]ccc4c32)CC1
2. c1cc2c(ncc3nnn(CC4CCNCC4)c32)[nH]1

A)
1: 5.9; 2: 1.7

====

Tyrosine-protein kinase JAK2 (Homo sapiens) data, read-out pKi
Sequence (O60674 whole entry): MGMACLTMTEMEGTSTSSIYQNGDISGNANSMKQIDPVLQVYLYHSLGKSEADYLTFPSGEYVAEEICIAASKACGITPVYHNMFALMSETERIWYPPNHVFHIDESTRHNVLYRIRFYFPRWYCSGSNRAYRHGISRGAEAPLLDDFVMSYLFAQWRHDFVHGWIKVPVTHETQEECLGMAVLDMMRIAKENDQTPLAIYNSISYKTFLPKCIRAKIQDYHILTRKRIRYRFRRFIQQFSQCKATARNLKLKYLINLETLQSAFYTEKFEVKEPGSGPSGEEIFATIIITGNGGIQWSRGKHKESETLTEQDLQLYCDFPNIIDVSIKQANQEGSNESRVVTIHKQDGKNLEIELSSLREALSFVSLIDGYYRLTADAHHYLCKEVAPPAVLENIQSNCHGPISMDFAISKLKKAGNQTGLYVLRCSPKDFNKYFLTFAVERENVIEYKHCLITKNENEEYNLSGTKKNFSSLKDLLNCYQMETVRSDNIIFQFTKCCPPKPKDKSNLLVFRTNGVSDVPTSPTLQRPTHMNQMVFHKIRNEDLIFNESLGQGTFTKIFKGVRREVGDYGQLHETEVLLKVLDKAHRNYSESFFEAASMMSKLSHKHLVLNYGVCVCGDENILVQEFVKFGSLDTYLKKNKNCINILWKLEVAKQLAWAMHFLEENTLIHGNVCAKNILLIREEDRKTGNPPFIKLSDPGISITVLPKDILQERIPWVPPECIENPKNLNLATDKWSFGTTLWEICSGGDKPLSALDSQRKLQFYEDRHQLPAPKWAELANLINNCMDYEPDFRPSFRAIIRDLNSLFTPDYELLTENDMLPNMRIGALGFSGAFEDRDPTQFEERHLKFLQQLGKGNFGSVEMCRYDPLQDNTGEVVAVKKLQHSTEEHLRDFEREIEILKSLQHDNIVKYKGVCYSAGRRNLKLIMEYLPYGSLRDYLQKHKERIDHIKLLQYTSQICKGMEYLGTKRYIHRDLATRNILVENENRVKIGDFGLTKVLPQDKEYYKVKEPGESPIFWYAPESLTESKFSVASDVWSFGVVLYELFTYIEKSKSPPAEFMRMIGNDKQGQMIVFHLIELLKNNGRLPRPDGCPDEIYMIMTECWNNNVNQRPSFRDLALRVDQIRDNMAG
Numbers only, as −log10 of the molar value.

Study these solved cases before continuing.
mol_smiles	pKi
c1cc2c(ncc3nnn(C4CCNCC4)c32)[nH]1	6.17
CC1(n2nnc3cnc4[nH]ccc4c32)CCN(S(C)(=O)=O)CC1	7.28
CC(C)CC(=O)N[C@H]1CC[C@H](n2nnc3cnc4[nH]ccc4c32)CC1	7.77
CC(C)(C)OC(=O)N[C@@H]1CC[C@@H](n2nnc3cnc4[nH]ccc4c32)C1	8.00
COC(=O)N[C@H]1CC[C@H](n2nnc3cnc4[nH]ccc4c32)CC1	7.57

Q) Note down pKi recorded for "N#CCC(=O)N1CCC[C@@H](n2nnc3cnc4[nH]ccc4c32)C1"
A) 8.42

====

- test_details: Lipophilicity, log D of the compound at pH 7.2
- Assay type: physicochemical
- condition_parameters: buffer
readout: logD
Numbers only.

Study these solved cases before continuing.
compound	logD
N#CCCN[C@H]1CC[C@H](n2nnc3cnc4[nH]ccc4c32)CC1	1.05
O[C@H]1CC[C@H](n2nnc3cnc4[nH]ccc4c32)CC1	1.76

Return reported logD values for all items listed beneath this line.
1. CS(=O)(=O)N1CCC(n2nnc3cnc4[nH]ccc4c32)CC1
2. CC1(n2nnc3cnc4[nH]ccc4c32)CCN(CCC#N)CC1
3. F[C@H]1CNCC[C@H]1n1nnc2cnc3[nH]ccc3c21 (racemic)
4. N#CCC(=O)N1CCC[C@@H](n2nnc3cnc4[nH]ccc4c32)C1
5. COC(=O)N[C@@H]1CC[C@@H](n2nnc3cnc4[nH]ccc4c32)C1 (racemic)
6. c1cc2c(ncc3nnn(C4CCNCC4)c32)[nH]1

A)
[1.05, 1.92, 0.27, 0.6, 1.98, -0.35]

====

- test_details: Half life in human liver microsomes
- Type: ADME, Microsome
Exercise: state measured half-life for each of the molecules provided.
Give bare numbers, in h.

mol_smiles	half-life (h)
O[C@H]1CC[C@H](n2nnc3cnc4[nH]ccc4c32)CC1	1.2
CN1CCC[C@H]1C(=O)N1CCC(n2nnc3cnc4[nH]ccc4c32)CC1	1.1
N#CCCO[C@H]1CC[C@H](n2nnc3cnc4[nH]ccc4c32)CC1	5.8
CC(C)(C)OC(=O)N[C@@H]1CC[C@@H](n2nnc3cnc4[nH]ccc4c32)C1	0.9

Consider now this further molecule.
Q) Note down half-life recorded for "CS(=O)(=O)N1CCC(n2nnc3cnc4[nH]ccc4c32)CC1"
A) 1.7
